- PROTOCOL_DESCRIPTION: Slurry ripening comparative co-crystal screening (solid form outcome)
- Format: physicochemical
- EXPERIMENTAL_SETUP: Compound 1 + coformer; MTBE saturated with coformer; cycled 25° C./5° C., 10 days
ASSAY_ENDPOINT: Slurry ripening result, MTBE

Below are worked cases with known answers.
Using the record for O=C(O)[C@@H](O)c1ccccc1 [L-(+)-Mandelic acid] , report its Slurry ripening result, MTBE. PCH

Using the record for O=C(O)c1ccc2ccccc2c1O [1-Hydroxy-2-Naphthoic acid] , report its Slurry ripening result, MTBE. A*

Using the record for `NC(N)=O` , report its Slurry ripening result, MTBE. PCH

Using the record for `Oc1cccc(O)c1O` , report its Slurry ripening result, MTBE. PCH

For the next question, use this compound.
Using the record for CC1(C(=O)O)CCC(C(=O)O)C1(C)C (stereo not drawn) [(+)-Camphoric acid] , report its Slurry ripening result, MTBE. PCH

The measured values listed here are drawn from patent US11013723B1.
